Values compiled from the supplement of paper PMC7156485.

system: TDF; test: H1.0 immunofluorescence intensity relative to DMSO (% of DMSO); higher = stronger H1.0 induction, active = 120 or more; settings: concentration: 10 µM; 24 h
endpoint: H1.0 immunofluorescence intensity

molecule	endpoint	measurement
COC(=O)C1C2CC3c4[nH]c5cc(OC)ccc5c4CCN3CC2CC(OC(=O)c2cc(OC)c(OC)c(OC)c2)C1OC (stereo not given)	H1.0 immunofluorescence intensity	101 (inactive)
CCCCCCCCC#CCC#CCC#CCCCC(=O)O	H1.0 immunofluorescence intensity	107 (inactive)
CCCCCC=CC=C1C(=O)C=CC1CC=CCCCC(=O)O (stereo not given) [15d-Prostaglandin J2]	H1.0 immunofluorescence intensity	97.5 (inactive)
COc1ccc(-n2[nH]c3c(cnc4ccccc43)c2=O)cc1 [2-(4-methoxyphenyl)-1H-pyrazolo[4,3-c]quinolin-3(2H)-one]	H1.0 immunofluorescence intensity	98.5 (inactive)
CCCCCC=CCC=CCC(O)C=CC=CCCCC(=O)O (stereo not given)	H1.0 immunofluorescence intensity	96.8 (inactive)

Attention now shifts to the item below.
Need H1.0 immunofluorescence intensity of CCCCCCCCC=CCCCCCCCCCCCC(=O)O [13(E)-Docosenoic acid] , thanks. 96 (inactive)

---

system: TDF; assay: cell number relative to DMSO (% of DMSO); higher = more cells (less growth inhibition / toxicity); conditions: concentration: 10 µM; 24 h
Label label 1 when cell number >= 100; otherwise label 0.

compound	classification
CC(=O)Oc1ccccc1C(=O)Nc1ncc([N+](=O)[O-])s1 [2-{[(5-nitro-1,3-thiazol-2-yl)amino]carbonyl}phenyl acetate]	label 0
CN(C)CCC=C1c2ccccc2Sc2ccc(Cl)cc21.Cl [Chlorprothixene hydrochloride]	label 1

Does cell number meet or surpass 100 for CCN(CC)CCNC(=O)c1c(C)[nH]c(C=C2C(=O)Nc3ccc(F)cc32)c1C ? label 0

Similarly, CN(C)C(=N)N=C(N)N ? label 0

---

Parameter H1.0 immunofluorescence intensity: see the listing below.
tested on: HCC1569; assay: H1.0 immunofluorescence intensity relative to DMSO (% of DMSO); higher = stronger H1.0 induction, active = 140 or more; conditions: concentration: 10 µM; 24 h
Keep it simple and answer with nothing but the number.

Past entries and their recorded results:
compound	target entity	H1.0 immunofluorescence intensity
CC(C)c1ccc2c(c1)c(SC(C)(C)C)c(CC(C)(C)C(=O)[O-])n2Cc1ccc(Cl)cc1.[Na+]	HCC1569	91.2
CN1CCN(CCCCN2C(=O)CN(/N=C/c3ccc(-c4ccc(Cl)cc4)o3)C2=O)CC1.Cl.Cl	HCC1569	115
COC(=O)c1sccc1S(=O)(=O)Nc1ccc(Nc2ccccc2)cc1OC	HCC1569	112
Cl.Cn1c(=O)c(Oc2ccc(F)cc2F)cc2cnc(NC3CCOCC3)nc21	HCC1569	102
CC(C=CC1=C(C)CCCC1(C)C)=CC=CC(C)=CC(=O)Nc1ccc(O)cc1 [4-Hydroxyphenylretinamide]	HCC1569	120
Cc1cnc(NC(=O)C2=C([O-])c3ccccc3S(=O)(=O)N2C)s1.[Na+] [Meloxicam sodium]	HCC1569	97.1

Need H1.0 immunofluorescence intensity of CCCc1c(OCCCCc2nn[nH]n2)ccc(C(C)=O)c1O , thanks. 105

Similarly, CCc1cccc(N(C)C(N)=Nc2cccc3ccccc23)c1.Cl ? 95.9

---

Parameter H1.0 immunofluorescence intensity: see the listing below.
tested on: TDF; test: H1.0 immunofluorescence intensity relative to DMSO (% of DMSO); higher = stronger H1.0 induction, active = 120 or more; conditions: concentration: 10 µM; 24 h
Keep it simple and answer with nothing but the number.

Past entries and their recorded results:
>>> print(df.to_string())
                                   molecule  measurement
0  COc1cc(C=C(C#N)C(=O)c2ccc(O)c(O)c2)cc(I)c1O          102
1  COc1ccc2c(c1OC)C(=O)OC2C1c2c(cc3c(c2OC)OCO3)CCN1C.Cl (stereo not drawn) [Noscapine hydrchloride]         97.1
2  CNCCCN1c2ccccc2CCc2ccccc21.Cl [Desipramine hydrochloride]         98.7
3  CC1(C)CC(NC(=O)C(=O)Nc2ccc(Cl)cc2)CC(C)(C)N1           91
4  CC1(C)SC2C(NC(=O)COc3ccccc3)C(=O)N2C1C(=O)[O-] (stereo not drawn)         87.4
5  COc1c(N2CCNC(C)C2)c(F)cc2c(=O)c(C(=O)O)cn(C3CC3)c12 (stereo not drawn)         94.2
6  Cc1cc(NC(=O)CS(=O)(=O)c2cn(Cc3cc(Br)ccc3F)c3ccccc23)no1           90

Attention now shifts to the item below.
Need H1.0 immunofluorescence intensity of O.O=c1c(O)c(-c2ccc(O)cc2O)oc2cc(O)cc(O)c12 , thanks. 100
